Test system: JB186 (synthetic)
Assay: EMSA
pKd: −log10 of the molar value.

{"biopolymerSequence": "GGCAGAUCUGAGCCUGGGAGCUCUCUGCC [HIV-1 TAR]", "studySystem": "JB186 (synthetic)", "pKd": 8.92}

* * *

Target: HIV-1 TAR RNA
Format: binding
Conditions: EMSA; positional scanning library, Table S1; without tRNA; read-out: Kd (nM) no tRNA
Non-standard residues stand in square brackets, D forms with d. Residues, ends and D or L forms follow the SMILES beside them.
The reader will find reported Kd values listed item by item below.

{"compound": "CC[C@H](C)[C@@H]1NC(=O)[C@H](CCCNC(=N)N)NC(=O)[C@H](CCCNC(=N)N)NC(=O)CNC(=O)[C@H](CCCCN)NC(=O)[C@H](CCCNC(=N)N)NC(=O)[C@H]([C@@H](C)O)NC(=O)[C@H](CCCNC(=N)N)NC(=O)[C@H](C(C)C)NC(=O)[C@H](CCCCN)NC(=O)[C@@H]2CCCN2C(=O)[C@H]2CCCN2C(=O)[C@H]([C@@H](C)CC)NC(=O)[C@H](CCCNC(=N)N)NC1=O [JB-60] (cyclo(KVRTRKGRRIRI[dP]P))", "Kd / nM": 3}
{"compound": "CC[C@H](C)[C@@H]1NC(=O)[C@H](CCCNC(=N)N)NC(=O)[C@H](C(C)C)NC(=O)[C@H](CCCNC(=N)N)NC(=O)[C@H](CCCNC(=N)N)NC(=O)CNC(=O)[C@H](CCCCN)NC(=O)[C@H](CCCNC(=N)N)NC(=O)[C@H]([C@@H](C)O)NC(=O)[C@H](CCCNC(=N)N)NC(=O)[C@H](C(C)C)NC(=O)[C@H](CCCNC(=N)N)NC(=O)[C@@H]2CCCN2C(=O)[C@H]2CCCN2C1=O [JB-76] (cyclo(RVRTRKGRRVRI[dP]P))", "Kd / nM": 1}
